system_name: Peptide deformylase (Pseudomonas aeruginosa (strain ATCC 15692 / PAO1 / 1C / PRS 101 / LMG12228), UniProt Q9I7A8)
assay_summary: Inhibition of Pseudomonas aeruginosa Peptide deformylase by fluorescence analysis
Flag rule - IC50 less than 30 nM flags t; the remaining entries get f.

structure | class_assignment
CC(C)(C)[C@H](NC(=O)c1ccccc1)C(=O)N(CC(=O)NO)CC1CCCC1 | f

Confirm or reject: IC50 of CC(C)(C)[C@H](NC(=O)Nc1ccccc1)C(=O)N(CC(=O)NO)CC1CCCC1 lies strictly below 30 nM
t

Confirm or reject: IC50 of CC(C)(C)[C@H](NC(=O)Nc1cccnc1)C(=O)N(CC(=O)NO)CC1CCCC1 lies strictly below 30 nM
f

Confirm or reject: IC50 of CC(C)(C)[C@H](NC(=O)N1CCOCC1)C(=O)N(CC(=O)NO)CC1CCCC1 lies strictly below 30 nM
t

Confirm or reject: IC50 of COc1ccccc1NC(=O)N[C@H](C(=O)N(CC(=O)NO)CC1CCCC1)C(C)C lies strictly below 30 nM
t

----------
system_name: Peptide deformylase (Pseudomonas aeruginosa (strain ATCC 15692 / PAO1 / 1C / PRS 101 / LMG12228), UniProt Q9I7A8)
Sequence (Q9I7A8 whole entry): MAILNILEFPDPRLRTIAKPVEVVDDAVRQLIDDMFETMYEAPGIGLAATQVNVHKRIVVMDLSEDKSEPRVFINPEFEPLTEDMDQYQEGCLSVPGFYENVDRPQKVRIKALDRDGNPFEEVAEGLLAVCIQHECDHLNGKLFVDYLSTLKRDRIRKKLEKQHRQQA
assay_summary: Inhibition of Pseudomonas aeruginosa Peptide deformylase by fluorescence analysis
Give measured pIC50 for each item. Keep answers brief.
Give bare numbers, as −log10 of the molar value.

As a guide, the following entries are already answered.
structure | attribute_measured | reported_value
CC(C)(C)[C@H](NC(=O)NC1CCCCC1)C(=O)N(CC(=O)NO)CC1CCCC1 | pIC50 | 7.26
CC[C@@H](C)[C@H](NC(=O)Nc1ccccc1OC)C(=O)N(CC(=O)NO)CC1CCCC1 | pIC50 | 7.49
COc1ccccc1C(=O)N[C@H](C(=O)N(CC(=O)NO)CC1CCCC1)C(C)(C)C | pIC50 | 7.96
COc1ccccc1NC(=O)N[C@H](C(=O)N(CC(=O)NO)CC1CCCC1)C(C)(C)C | pIC50 | 7.54
CC(C)(C)[C@H](NC(=O)c1cccs1)C(=O)N(CC(=O)NO)CC1CCCC1 | pIC50 | 7.72

Give pIC50 for all compounds that follow.
1. CC(C)(C)[C@H](NC(=O)N1CCCCC1)C(=O)N(CC(=O)NO)CC1CCCC1
2. COc1ccccc1NC(=O)N[C@@H](C)C(=O)N(CC(=O)NO)CC1CCCC1

[7.33, 7.38]

Give pIC50 for all compounds that follow.
1. COc1ccccc1NC(=O)N[C@@H](Cc1ccccc1)C(=O)N(CC(=O)NO)CC1CCCC1
2. CC(C)(C)[C@H](NC(=O)Nc1ccccn1)C(=O)N(CC(=O)NO)CC1CCCC1
3. COc1ccccc1NC(=O)N[C@H](C(=O)N(CCC(C)C)CC(=O)NO)C(C)(C)C
4. COc1ccccc1NC(=O)N[C@@H](CC(C)C)C(=O)N(CC(=O)NO)CC1CCCC1
5. CC(C)(C)[C@H](NC(=O)Nc1ccncc1)C(=O)N(CC(=O)NO)CC1CCCC1
6. COc1ccccc1NC(=O)N[C@H](C(=O)N(CCC1CCCC1)CC(=O)NO)C(C)(C)C
7. COc1ccccc1NC(=O)N[C@H](C(=O)N(CC(=O)NO)CC1CC1)C(C)(C)C

1. 7.21
2. 7.27
3. 7.68
4. 7.44
5. 7.19
6. 7.51
7. 7.82

Give pIC50 for all compounds that follow.
1. COc1ccccc1NC(=O)N1CCC[C@H]1C(=O)N(CC(=O)NO)CC1CCCC1
2. CC(C)C(=O)N[C@H](C(=O)N(CC(=O)NO)CC1CCCC1)C(C)(C)C
3. CN(C(=O)N[C@H](C(=O)N(CC(=O)NO)CC1CCCC1)C(C)(C)C)c1ccccc1
4. COc1ccccc1NC(=O)N[C@H](C(=O)N(CC(=O)NO)CC1CCC1)C(C)(C)C
5. COCCNC(=O)N[C@H](C(=O)N(CC(=O)NO)CC1CCCC1)C(C)(C)C

[6.94, 7.28, 7.30, 7.89, 7.38]

These data points were gathered from ChEMBL document CHEMBL1208753.
